Test system: SH rats
measurementDescription: Blood pressure in SH rats after p.o. administration (tail artery, Riva Rocci)
Assay type: in vivo, rat
Each entry below carries its recorded Dose at which a blood pressure reduction occurs, p.o..

Record excerpt, results attached:
Request: Field request: Dose at which a blood pressure reduction occurs, p.o. | item: CCCCOC(=O)C1=C(C)N(C)C(C)=C(C(=O)OCCCC)C1c1ccc([N+](=O)[O-])cc1
Result: > 30 mg/kg

Request: Subsequent entry: COC(=O)C1=C(C)N(C)C(C)=C(C(=O)OC)C1c1ccc(C(F)(F)F)cc1
Result: > 30 mg/kg

Request: Subsequent entry: COC(=O)C1=C(C)N(C)C(C)=C(C(=O)OC(C)C(C)C)C1c1ccc(C(F)(F)F)cc1 (centres unmarked)
Result: > 30 mg/kg

Request: Subsequent entry: CCOC(=O)C1=C(C)N(C2CC2)C(C)=C(C(=O)OCC)C1c1ccc(C(F)(F)F)cc1
Result: > 100 mg/kg

Okay, next one:
Request: Field request: Dose at which a blood pressure reduction occurs, p.o. | item: COC(=O)C1=C(C)N(C2CC2)C(C)=C(C(=O)OC)C1c1ccc(C(F)(F)F)cc1
Result: > 30 mg/kg

Attribution: patent US5234935A
